Form field: pEC50 (one value per entry).
Target Of Assay: Peroxisome proliferator-activated receptor gamma (Homo sapiens, UniProt P37231)
Sequence (P37231 whole entry): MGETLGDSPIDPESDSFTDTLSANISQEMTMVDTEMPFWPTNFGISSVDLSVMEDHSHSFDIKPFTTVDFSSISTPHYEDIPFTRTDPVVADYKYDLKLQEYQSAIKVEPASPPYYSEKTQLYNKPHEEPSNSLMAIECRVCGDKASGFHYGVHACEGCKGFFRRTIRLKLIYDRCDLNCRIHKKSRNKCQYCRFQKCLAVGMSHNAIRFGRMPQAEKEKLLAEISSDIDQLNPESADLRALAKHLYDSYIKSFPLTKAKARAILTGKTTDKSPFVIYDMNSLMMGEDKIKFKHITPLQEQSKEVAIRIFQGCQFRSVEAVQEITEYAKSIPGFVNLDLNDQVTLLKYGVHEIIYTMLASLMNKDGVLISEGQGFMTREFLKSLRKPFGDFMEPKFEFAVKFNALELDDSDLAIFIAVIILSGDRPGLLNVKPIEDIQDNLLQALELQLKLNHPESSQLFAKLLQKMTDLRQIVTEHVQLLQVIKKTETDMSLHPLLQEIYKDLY
Assay Details: Transactivation of human GAL4-fused PPARgamma LBD expressed in African green monkey COS7 cells co-expressing 5Gal4 pGL3 TK Luc after overnight incubation by luciferase reporter gene assay
Assay type: cell-based
pEC50: −log10 of the molar value.
Endpoint Name: pEC50

[[record]]
smiles_string = "Cc1nc2ccc(S(=O)(=O)n3c(CCCC(=O)O)cc4cc(Cl)ccc43)cc2s1"
value_reported = 7.96

[[record]]
smiles_string = "O=C(O)CCCc1cc2cc(Cl)ccc2n1S(=O)(=O)c1ccc2nsnc2c1"
value_reported = 6.82

[[record]]
smiles_string = "O=C(O)CCCc1cc2cc(C(F)(F)F)ccc2n1S(=O)(=O)c1cccc(OC(F)(F)F)c1"
value_reported = 6.70

[[record]]
smiles_string = "Cc1cccc(S(=O)(=O)n2c(CCCC(=O)O)cc3cc(Cl)ccc32)c1"
value_reported = 7.12


###

Target Of Assay: Peroxisome proliferator-activated receptor delta (Homo sapiens)
Sequence (whole entry): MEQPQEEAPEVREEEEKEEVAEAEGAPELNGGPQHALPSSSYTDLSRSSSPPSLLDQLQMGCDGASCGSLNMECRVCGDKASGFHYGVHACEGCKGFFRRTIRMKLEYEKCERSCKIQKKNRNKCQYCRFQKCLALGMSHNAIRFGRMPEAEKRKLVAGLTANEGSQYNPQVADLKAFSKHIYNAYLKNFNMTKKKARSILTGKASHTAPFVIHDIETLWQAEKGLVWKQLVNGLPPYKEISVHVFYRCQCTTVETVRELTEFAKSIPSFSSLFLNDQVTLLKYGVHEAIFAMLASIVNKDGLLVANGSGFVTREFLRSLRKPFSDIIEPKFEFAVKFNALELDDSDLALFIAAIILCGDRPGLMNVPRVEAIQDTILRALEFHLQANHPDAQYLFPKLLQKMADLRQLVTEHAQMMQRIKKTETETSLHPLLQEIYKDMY
Assay Details: Transactivation of human GAL4-fused PPARdelta LBD expressed in African green monkey COS7 cells co-expressing 5Gal4 pGL3 TK Luc after overnight incubation by luciferase reporter gene assay relative to GW501516
Format: cell-based
Catalogue of Emax values
Endpoint Name: Emax

[[record]]
smiles_string = "O=C(O)CCCc1cc2cc(Cl)ccc2n1S(=O)(=O)c1ccc2nsnc2c1"
value_reported = "35%"

[[record]]
smiles_string = "COc1ccc2c(c1)cc(CCCC(=O)O)n2S(=O)(=O)c1ccccc1"
value_reported = "< 20%"

[[record]]
smiles_string = "O=C(O)CCCc1cc2cc(C(F)(F)F)ccc2n1S(=O)(=O)c1ccccc1Cl"
value_reported = "< 20%"

[[record]]
smiles_string = "O=C(O)COCc1cc2cc(Cl)ccc2n1S(=O)(=O)c1ccccc1"
value_reported = "< 20%"


###

Target Of Assay: Peroxisome proliferator-activated receptor gamma (Homo sapiens, UniProt P37231)
Sequence (P37231 whole entry): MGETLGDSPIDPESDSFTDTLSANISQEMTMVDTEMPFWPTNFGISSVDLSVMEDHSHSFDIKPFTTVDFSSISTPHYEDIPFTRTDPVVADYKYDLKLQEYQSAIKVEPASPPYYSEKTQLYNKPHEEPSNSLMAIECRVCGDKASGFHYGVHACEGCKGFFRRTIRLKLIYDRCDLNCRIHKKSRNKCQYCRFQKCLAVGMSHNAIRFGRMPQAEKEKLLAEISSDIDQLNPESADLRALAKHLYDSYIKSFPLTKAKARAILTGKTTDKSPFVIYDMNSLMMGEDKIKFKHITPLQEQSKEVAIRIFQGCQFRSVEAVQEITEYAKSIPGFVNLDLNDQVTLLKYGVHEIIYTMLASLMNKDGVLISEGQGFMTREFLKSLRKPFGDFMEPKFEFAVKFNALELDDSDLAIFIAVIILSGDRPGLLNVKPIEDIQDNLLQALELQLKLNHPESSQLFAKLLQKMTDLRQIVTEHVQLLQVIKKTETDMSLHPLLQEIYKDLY
Assay Details: Transactivation of human GAL4-fused PPARgamma LBD expressed in African green monkey COS7 cells co-expressing 5Gal4 pGL3 TK Luc after overnight incubation by luciferase reporter gene assay
Type: cell-based
pEC50: −log10 of the molar value.
Endpoint Name: pEC50

[[record]]
smiles_string = "O=C(O)CCCc1cc2cc(C(F)(F)F)ccc2n1S(=O)(=O)c1ccccc1Cl"
qualifying_sign = "<"
value_reported = 5.30

[[record]]
smiles_string = "COc1ccccc1S(=O)(=O)n1c(CCCC(=O)O)cc2cc(C(F)(F)F)ccc21"
qualifying_sign = "="
value_reported = 5.90

[[record]]
smiles_string = "O=C(O)CCCc1cc2cc(Cl)ccc2n1S(=O)(=O)c1cccc2ccccc12"
qualifying_sign = "="
value_reported = 6.58

[[record]]
smiles_string = "Nc1nc2ccc(S(=O)(=O)n3c(CCCC(=O)O)cc4cc(Cl)ccc43)cc2s1"
qualifying_sign = "="
value_reported = 7.39

[[record]]
smiles_string = "Cc1ccc2c(c1)cc(CCCC(=O)O)n2S(=O)(=O)c1ccccc1"
qualifying_sign = "="
value_reported = 6.55


###

Reported pEC50 values for a set of compounds
Target Of Assay: Peroxisome proliferator-activated receptor delta (Homo sapiens, UniProt Q03181)
Sequence (Q03181 whole entry): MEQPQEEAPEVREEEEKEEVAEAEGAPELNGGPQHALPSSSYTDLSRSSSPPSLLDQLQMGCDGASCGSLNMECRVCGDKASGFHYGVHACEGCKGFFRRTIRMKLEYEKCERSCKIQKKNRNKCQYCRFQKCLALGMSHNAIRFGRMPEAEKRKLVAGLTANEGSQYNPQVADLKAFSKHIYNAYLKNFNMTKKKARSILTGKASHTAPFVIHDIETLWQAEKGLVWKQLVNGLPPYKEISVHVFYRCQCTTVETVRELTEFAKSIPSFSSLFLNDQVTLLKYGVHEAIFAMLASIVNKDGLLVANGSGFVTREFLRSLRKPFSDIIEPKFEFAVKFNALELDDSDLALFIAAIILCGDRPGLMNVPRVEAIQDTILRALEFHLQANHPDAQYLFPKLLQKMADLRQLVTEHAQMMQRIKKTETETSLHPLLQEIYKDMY
Assay Details: Transactivation of human GAL4-fused PPARdelta LBD expressed in African green monkey COS7 cells co-expressing 5Gal4 pGL3 TK Luc after overnight incubation by luciferase reporter gene assay
pEC50: −log10 of the molar value.
Endpoint Name: pEC50

[[record]]
smiles_string = "O=C(O)CCCc1cc2cc(Cl)ccc2n1S(=O)(=O)c1ccc2nc[nH]c2c1"
value_reported = "< 5.30"

[[record]]
smiles_string = "O=C(O)CCCc1cc2cc(C(F)(F)F)ccc2n1S(=O)(=O)c1ccccc1"
value_reported = "< 5.30"

[[record]]
smiles_string = "O=C(O)CCCc1cc2cc(C(F)(F)F)ccc2n1S(=O)(=O)c1ccc2ncsc2c1"
value_reported = 5.95

[[record]]
smiles_string = "Cc1ccc2c(c1)cc(CCCC(=O)O)n2S(=O)(=O)c1ccccc1"
value_reported = "< 5.30"

[[record]]
smiles_string = "O=C(O)CCCc1cc2cc(Cl)ccc2n1S(=O)(=O)c1ccc2nsnc2c1"
value_reported = "< 5.30"


Origin of measurements: ChEMBL document CHEMBL4020830
